- measurementDescription: chemical genetic growth profiling, strain panel (AID 1159580);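 also: tested at 20 µM; growth read once vehicle control cultures reached saturation at 30 °C; 1 = growth at the plate median or of vehicle wells; lower values mean less growth of the strain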
- appliedConditions: S. cerevisiae deletion strains, growth OD, locus YDL035C, strain GPR1, active compounds read low
About 2,000 (36%) of roughly 5,500 compounds were called active. Inconclusive results (about 18%) are left out. Some of the results follow.
A collection of compounds and their measured normalized growth

# compound, normalized growth
data = [
    ("CCN(CC)C(=O)N1CCN(C)CC1", 1.04),
    ("CC(=O)S[C@@H]1CC2=CC(=O)CC[C@]2(C)[C@H]2CC[C@@]3(C)[C@@H](CC[C@@]34CCC(=O)O4)C12 (stereo not given in full)", 1.01),
    ("C[C@]12CCC(=O)C=C1C=CC1C2CC[C@@]2(C)C1CC[C@@]21CCC(=O)O1 (stereo not given in full)", 0.962),
    ("Clc1ccc(C(OCCN2CCCCC2)c2ccccc2)cc1 (stereo not given)", 0.986),
    ("O=C1CCC(N2C(=O)c3ccccc3C2=O)C(=O)N1 (stereo not given)", 1.02),
]
